Tested on: CCRF-CEM leukemia
PROTOCOL_TEXT: NCI tumour cell line growth inhibition, 48 h; in the data active means GI50 below about 0.43 µM; inactive means the rest
Pick one: true (1) (active), false (0) (inactive)

These recorded examples may help you get a feel for the data.
COMPOUND	CLASS_LABEL
CCNCCCn1c2c(c3ccc([N+](=O)[O-])cc3c1=O)C(=O)c1cc(OC)cnc1-2	true (1)
Oc1ccc(C#CCOc2ccccc2)cc1CNCCN(Cc1ccccn1)Cc1ccccn1	false (0)
COC1=C(Br)C(=O)C2=C(C1=O)C1C3=C(C(=O)C=CC3=O)C2c2ccccc21 (stereo not drawn)	false (0)
COc1ccc(N(/C=C/C(=O)C(F)(F)F)CC(=O)c2ccc(Cl)c(Cl)c2)cc1	false (0)
CN(C)CCCn1c2nc(=O)[nH]c(=O)c-2nc2cc(Cl)c(Cl)cc21	false (0)
COc1cc(OC)c(C(=O)/C=C/c2cccc(OC(C)=O)c2)cc1CC=C(C)C	false (0)
CNCCCNCCCN1C(=O)c2ccc3c4c(ccc(c24)C1=O)C(=O)N(CCCNCc1ccccc1OC)C3=O	false (0)

As a next step, examine the compound that follows.
Problem: // return assay outcome for `N#Cc1c(N)nc(N2CCOCC2)c(C#N)c1-c1ccccc1Cl`
Solution: false (0)

====

Test system: U251 CNS
PROTOCOL_TEXT: NCI tumour cell line growth inhibition, 48 h
TEST_READOUT: TGI

Solved cases below.
COMPOUND	MEASUREMENT_TARGET	TEST_READOUT	REPORTED_RESULT
COc1ccccc1/C=C/C(=O)/C=C/c1ccccc1OC	U251 CNS	TGI	3.24 µM
N#Cc1ccc(Oc2nc3ccc(C(F)(F)F)cc3nc2-c2ccccc2)cc1	U251 CNS	TGI	30.9 µM

Problem: Form field - read-out: TGI; system: U251 CNS; submitted item: `C[C@H](N)C(=O)N1C[C@H](CCCB(O)O)[C@](N)(C(=O)O)C1`
Solution: > 100 µM

====

Tested on: M14 melanoma
PROTOCOL_TEXT: NCI tumour cell line growth inhibition, 48 h
Recorded GI50 by entry

Solved cases below.
COMPOUND	REPORTED_RESULT
COc1ccc2c(c1)/C(=N/OC(C)=O)c1c-2c(=O)[nH]c2ccccc12	13.2 µM
COc1ccccc1/C=C/C(=O)/C=C/c1ccccc1OC	1.65 µM
CC(=O)OC1Oc2ccccc2-c2oc(=O)c(-c3cc4ccccc4oc3=O)cc21 (stereo not given)	36.6 µM
N#Cc1c(N)nc(N2CCOCC2)c(C#N)c1-c1ccccc1Cl	60.9 µM

Problem: Quick check: GI50 of `C1=Nc2ccccc2C=Nc2ccccc2C=Nc2ccccc2C=Nc2ccccc21.[Cl-].[Pt+2]` ?
Solution: 30.2 µM

====

Tested on: T-47D breast
PROTOCOL_TEXT: NCI tumour cell line growth inhibition, 48 h
Recorded TGI by entry
Write the number in µM without appending the unit.

Solved cases below.
COMPOUND	TGI, µM
O=C1C(NCCN2CCOCC2)=C(Cl)C(=O)c2ncccc21	3.14
CC(=O)Oc1ccc(/C=C/C(=O)O[C@H]2CCCC[C@@H]2OC(=O)/C=C/c2ccc(OC(C)=O)c(OC(C)=O)c2)cc1OC(C)=O	47.1

Consider now this further compound.
Problem: Quick check: TGI of C=C1C[C@@]2(C)C(CC[C@]3(C)C2CC=C2C4CC(C)(C)C[C@@H](OC(=O)/C(C)=C\C)[C@]4(C(=O)O)CC[C@]23C)C(C)(C)C1=O (stereo not given in full) ?
Solution: 15.2

====

System: CCRF-CEM leukemia
PROTOCOL_TEXT: NCI tumour cell line growth inhibition, 48 h
TEST_READOUT: TGI (µM)
Write the number in µM without appending the unit.

MOLECULE	VALUE_UNIT	REPORTED_RESULT
C=C1C(=O)O[C@H]2[C@H]1CC/C(Cn1cc(-c3cc(C)c(C)cc3C)nn1)=C\CC[C@@]1(C)O[C@@H]21	µM	2.65
CC(=O)OCC1=C(C)C[C@H]([C@@H](COC(C)=O)C2CCC3C4C[C@H]5O[C@]56CC=CC(=O)[C@]6(C)C4CC[C@@]32C)OC1=O (some centres undefined)	µM	0.353
N=c1c2c(=S)n(-c3ccccc3)c(=S)n(-c3ccccc3)c2nc(SCCN2CCOCC2)n1-c1ccccc1	µM	3.19

Problem: Form field - read-out: TGI; system: CCRF-CEM leukemia; submitted item: CCN(CC)CCCC(C)NC(=O)c1ccc2c(c1)C(=O)c1ccccc1C2=O (centres undefined)
Solution: 61.2

====

System: RXF 393 renal
PROTOCOL_TEXT: NCI tumour cell line growth inhibition, 48 h
TEST_READOUT: log10 of TGI (log10 of the value in µM)
On a log10 scale: recorded TGI, unit µM.

MOLECULE	MEASUREMENT_TARGET	log10 of TGI
N=c1c2c(=S)n(-c3ccccc3)c(=S)n(-c3ccccc3)c2nc(SCCN2CCOCC2)n1-c1ccccc1	RXF 393 renal	0.55
CC(=O)NC(Cc1ccc(OP(=O)(OCc2ccc([N+](=O)[O-])o2)N(C)CCCCCl)cc1)C(=O)NC(C)c1ccc(OCC2CCCCC2)c(C(N)=O)c1 (centres undefined)	RXF 393 renal	0.75
COC1=C(Br)C(=O)C2=C(C1=O)C1C3=C(C(=O)C=CC3=O)C2c2ccccc21 (centres undefined)	RXF 393 renal	1.57
CC(C)c1ccc(NC(=S)NC(=O)c2ccccc2)cc1	RXF 393 renal	1.65
O=C1NN(c2ccccc2)C(=O)/C1=C/c1ccc(Br)o1	RXF 393 renal	0.31
Cc1cc(N(CCCl)CCCl)ccc1/C=N/NC(=O)Cc1cc(=O)oc2cc(O)ccc12	RXF 393 renal	1.65
C=C1C(=O)O[C@H]2[C@H]1CC/C(Cn1cc(-c3cc(C)c(C)cc3C)nn1)=C\CC[C@@]1(C)O[C@@H]21	RXF 393 renal	0.34
NC1=Nc2cc(OCCCN3Cc4ccccc4C3)c(OCC3CC3)cc2C12CCCC2	RXF 393 renal	0.55

Problem: Form field - read-out: log10 of TGI; system: RXF 393 renal; submitted item: `c1ccc(N=C2SC3=NCCN3C2=Nc2ccccc2)cc1`
Solution: 1.51

Problem: Form field - read-out: log10 of TGI; system: RXF 393 renal; submitted item: `COc1ccccc1/C=C/C(=O)/C=C/c1ccccc1OC`
Solution: 0.49

====

Tested on: OVCAR-5 ovarian
PROTOCOL_TEXT: NCI tumour cell line growth inhibition, 48 h
*1 amine or outer side, *2 acyl side, *3 side chain or, on linkers, in order; H or OH if unused. Where a SMILES comes first, the peptide text is derived from it. [ ]: non-standard residue; d: D form. ξ: configuration not given here. X21 = CC[C@@H](C)C(N[*:1])C(=O)[*:2]; ξR = N=C(N)NCCCC(N)C(=O)O; ξI = CCC(C)C(N)C(=O)O; ξL = CC(C)CC(N)C(=O)O; ξK = NCCCCC(N)C(=O)O; ξV = CC(C)C(N)C(=O)O; ξA = CC(N)C(=O)O
TEST_READOUT: TGI (µM)
Write the number in µM without appending the unit.

MOLECULE	TGI [µM]
COc1ccccc1/C=C/C(=O)/C=C/c1ccccc1OC	6.47

Problem: Quick check: TGI of CCC(C)C1NC(=O)C(CC(C)C)NC(=O)C(C)NC(=O)C(C(C)C)NC(=O)C(CCCCN)NC(=O)C(CC(C)C)NC(=O)C(C(C)C)NC(=O)[C@H](C)NC(=O)C(C(C)CC)NC(=O)C(CCCN=C(N)N)NC(=O)C(CCCCN)NC(=O)C(CCCN=C(N)N)NC(=O)C(CCCCN)NC(=O)C([C@H](C)CC)NC(=O)C(CCCCN)NC1=O (some centres not stated) (cyclo(A[ξV][ξL][ξK][ξV][ξA][ξL][ξI][ξK][X21][ξK][ξR][ξK][ξR][ξI])) ?
Solution: 7.16

Problem: Quick check: TGI of COC1=C(Br)C(=O)C2=C(C1=O)C1C3=C(C(=O)C=CC3=O)C2c2ccccc21 (configuration not stated) ?
Solution: 98.6

Problem: Quick check: TGI of CC(=O)OCC1OC(O/C=C(\CN=[N+]=[N-])C(C)=O)C(OC(C)=O)C(OC(C)=O)C1OC(C)=O (configuration not stated) ?
Solution: 32.9

====

Test system: NCI/ADR-RES ovarian
PROTOCOL_TEXT: NCI tumour cell line growth inhibition, 48 h
Recorded log10(TGI) by entry
On a log10 scale: recorded TGI, unit µM.

SMILES_NOTATION	MEASUREMENT_TARGET	log10(TGI)
COc1ccc(-c2cc(=O)c3c(OC)c(OC)c(OC)c(OC)c3o2)c(OC)c1	NCI/ADR-RES ovarian	1.83
O=C(Nc1ccccc1)Nc1cccc(Oc2nnc(Cl)c3ccccc23)c1	NCI/ADR-RES ovarian	0.81
COc1ccc(Oc2nc(C#CC(C)(C)O)nc(Oc3ccc(OC)cc3)n2)cc1	NCI/ADR-RES ovarian	1.67
CC1(C)CC(Nc2ccc(Nc3ccccc3)cc2)CC(C)(C)N1	NCI/ADR-RES ovarian	1.83
CCOc1ccc2nc(NC(NC(=O)c3cccnc3)(C(F)(F)F)C(F)(F)F)sc2c1	NCI/ADR-RES ovarian	1.97

Consider now this further compound.
Problem: Form field - read-out: log10(TGI); system: NCI/ADR-RES ovarian; submitted item: `C=C1C(=O)O[C@@H]2[C@H](O)[C@@H](C)[C@@H]3C=CC(=O)[C@@]3(C)[C@H](OC(=O)C=C(C)C)[C@H]12`
Solution: 0.81
